test target: human CCR2 (Homo sapiens, UniProt P41597)
Sequence (P41597 1-360 isoform P41597-2): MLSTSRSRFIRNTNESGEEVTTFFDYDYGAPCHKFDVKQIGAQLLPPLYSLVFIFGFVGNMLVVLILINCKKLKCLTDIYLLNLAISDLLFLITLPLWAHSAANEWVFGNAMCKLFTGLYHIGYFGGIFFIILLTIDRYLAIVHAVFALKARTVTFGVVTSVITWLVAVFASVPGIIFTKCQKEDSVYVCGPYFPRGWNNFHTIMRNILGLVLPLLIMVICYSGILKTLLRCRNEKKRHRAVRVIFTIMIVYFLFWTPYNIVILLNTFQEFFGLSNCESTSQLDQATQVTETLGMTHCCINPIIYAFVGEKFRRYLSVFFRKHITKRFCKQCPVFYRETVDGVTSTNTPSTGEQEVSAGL
assay summary: Functional Ca2+ release test (B-1)
test parameters: Chem-1 cell line transfected with human CCR2; 50% inhibition of the MCP-1 effect, MCP-1 at EC50 (about 5 nM); in some cases means of several determinations
endpoint label: IC50 (nM)

A: O=c1[nH]nc(Cc2nc(C(F)(F)F)c(Cc3ccc(Cl)c(Cl)c3)c(=O)[nH]2)o1
B: Nc1cccc(-c2nc(C(F)(F)F)c(Oc3ccc(Cl)c(Cl)c3)c(=O)[nH]2)n1
C: Cn1cc(Nc2nc(C(F)(F)F)c(Oc3ccc(Cl)c(Cl)c3)c(=O)[nH]2)cn1
With regard to IC50, arrange the entries in ascending order, please. # list labels per requested ordering
B, A, C
(B: 6.6 nM, A: 11 nM, C: 41 nM)

I: O=c1[nH]c(-c2cn[nH]c2)nc(C(F)(F)F)c1Cc1ccc(Cl)c(Cl)c1
II: Nc1ccc(-c2nc(C(F)(F)F)c(Oc3ccc(Cl)c(C(F)(F)F)c3)c(=O)[nH]2)nn1
Looking at recorded values for IC50, does I or II come in lower? Label of pick, please.
II
(II: 0.7 nM, I: 5.5 nM)

A: Cn1nc(-c2nc(C(F)(F)F)c(Oc3ccc(Cl)c(Cl)c3)c(=O)[nH]2)c2cccnc21
B: COc1ccc2c(-c3nc(C(F)(F)F)c(Oc4ccc(Cl)c(Cl)c4)c(=O)[nH]3)noc2c1
Given A and given B , which shows the smaller recorded IC50? Record your answer as the label of the chosen record.
A
(A: 26 nM, B: 77 nM)

A: O=c1[nH]c(-c2ncon2)nc(C(F)(F)F)c1Oc1ccc(Cl)c(C(F)(F)F)c1
B: Cc1cccc(-c2nc(C(F)(F)F)c(Oc3ccc(Cl)c(Cl)c3)c(=O)[nH]2)n1
// compare: A vs B , metric IC50, want the smaller Your answer should be the label of the entry you select.
A
(A: 3.7 nM, B: 13 nM)

###

test target: murine CCR2 (Mus musculus)
Construct: host or cells: U2OS β-arrestin cell line
assay summary: Functional β-arrestin recruiting test with murine MCP-1 (B-2b)
Assay type: cell-based
test parameters: U2OS β-arrestin cell line transfected with murine CCR2; agonist murine MCP-1; in some cases means of several determinations
endpoint label: IC50 (nM)

The following compounds have reported results that may help.
• O=c1[nH]c(-c2ccccn2)nc(C(F)(F)F)c1Oc1ccc(Cl)c(Cl)c1 [Example 3] = 205
• Cc1cnc(-c2nc(C(F)(F)F)c(Oc3ccc(Cl)c(Cl)c3)c(=O)[nH]2)[nH]1 [Example 241] = 76

a: Cc1ccc(-c2nc(C(F)(F)F)c(Oc3ccc(Cl)c(C(F)(F)F)c3)c(=O)[nH]2)nc1 [Example 193]
b: O=c1[nH]c(-c2ccncc2Cl)nc(C(F)(F)F)c1Oc1ccc(Cl)c(Cl)c1 [Example 124]
Could you please tell me which of these two has the higher IC50: a or b ? Answer format: the label of the selected item.
b

###

test target: murine CCR2 (Mus musculus, UniProt P51683)
Construct: host or cells: U2OS β-arrestin cell line
Sequence (P51683 whole entry): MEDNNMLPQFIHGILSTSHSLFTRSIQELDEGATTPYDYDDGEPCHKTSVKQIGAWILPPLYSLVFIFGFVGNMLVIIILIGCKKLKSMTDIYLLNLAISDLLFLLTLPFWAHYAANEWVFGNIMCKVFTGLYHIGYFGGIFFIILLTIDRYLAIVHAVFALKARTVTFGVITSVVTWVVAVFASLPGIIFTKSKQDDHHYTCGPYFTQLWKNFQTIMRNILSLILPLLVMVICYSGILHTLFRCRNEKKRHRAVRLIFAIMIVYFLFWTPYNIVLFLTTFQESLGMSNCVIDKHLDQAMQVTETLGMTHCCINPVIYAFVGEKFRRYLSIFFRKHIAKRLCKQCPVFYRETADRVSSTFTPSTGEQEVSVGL
assay summary: Functional β-arrestin recruiting test with murine MCP-1 (B-2b)
Type: cell-based
test parameters: U2OS β-arrestin cell line transfected with murine CCR2; agonist murine MCP-1; in some cases means of several determinations
endpoint label: IC50 (nM)

1: COc1nn(C)cc1-c1nc(C(F)(F)F)c(Oc2ccc(Cl)c(Cl)c2)c(=O)[nH]1
2: COc1cc(OC)nc(-c2nc(C(F)(F)F)c(Oc3ccc(Cl)c(C(F)(F)F)c3)c(=O)[nH]2)n1
3: O=c1[nH]c(-c2ncccc2Cl)nc(C(F)(F)F)c1Cc1ccc(Cl)c(Cl)c1
Please list these molecules in decreasing order of IC50. Returns: the labels arranged in the requested order.
1, 3, 2

1: C[S+]([O-])c1cccnc1-c1nc(C(F)(F)F)c(Oc2ccc(Cl)c(Cl)c2)c(=O)[nH]1 (stereo not shown)
2: Cn1nc(-c2nc(C(F)(F)F)c(Oc3ccc(Cl)c(C(F)(F)F)c3)c(=O)[nH]2)c2c(Cl)cccc21
3: CCCc1cc(-c2nc(C(F)(F)F)c(Oc3ccc(Cl)c(C(F)(F)F)c3)c(=O)[nH]2)no1
4: O=c1[nH]c(-n2cnc(Cl)n2)nc(C(F)(F)F)c1Oc1ccc(Cl)c(Cl)c1
5: O=c1[nH]c(-c2ncccc2Cl)nc(C(F)(F)F)c1Oc1ccc(Cl)c(Cl)c1
Put the entries in order of IC50, starting with the largest number. // rank by listing labels in the order requested
4, 3, 1, 2, 5
(4: 5530 nM, 3: 1320 nM, 1: 679 nM, 2: 246 nM, 5: 50 nM)
